Target: TEAD2 (Homo sapiens)
Experiment: biochemical
value_type: IC50 (nM)

As a guide, the following entries are already answered.
C=CC(=O)N(C)CCc1cc(-c2ccc(OC(F)(F)F)cc2)c2ncn(C)c2c1C#N; 39
C=CC(=O)NCc1cc(-c2ccc(OC(F)(F)F)cc2)c2nccn2c1CO; 227
O=C(C1=CCC1)N1CC(c2cc(-c3ccc(OC(F)(F)F)cc3)c3nccnc3c2[C@@H](O)CO)C1; 38
C=CC(=O)NCc1cc(-c2ccc(OC(F)(F)F)cc2)c2c(c1-n1ccnc1)CCO2; 370
C=C(F)C(=O)N1CC(n2cc(-c3ccc(OC(F)(F)F)cc3)c3nccnc3c2=O)C1; 1700
O=C(CCl)NCc1cc(-c2ccc(OC(F)(F)F)cc2)c2c(c1CO)CCO2; 3.9
C=CC(=O)NCc1cc(-c2ccc(OC(F)(F)F)cc2)c2ncn(C)c2c1[C@H](C)O (single isomer, unassigned) [Compound 139]; 6.8
C#Cc1ccc(-c2cc(CN(C)C(=O)C=C)c(CO)c3c2OCC3)cc1; 67
C=C(F)C(=O)N1CC(n2cc(-c3ccc(OC(F)(F)F)cc3)c3ncn(C)c3c2=O)C1; 30
C=CC(=O)NCc1cc(-c2ccc(S(F)(F)(F)(F)F)cc2)c2c(c1[C@@H](O)CO)CCO2 (stereo in doubt); 19

[P] C=CC(=O)NCc1nc(C23CC(C(C)C)(C2)C3)c2ncsc2n1
[Q] C=CC(=O)NCc1cc(-c2ccc(OC(F)(F)F)cc2)c2ncn(C)c2c1[C@H](C)O (single isomer, unassigned) [Compound 33]
Enquiry: Sort P and Q by IC50 descending and give the first. Please identify the chosen entry by its label.
Return: P

---

Target: TEAD1 (Homo sapiens, UniProt P28347)
Sequence (P28347 whole entry, species assumed): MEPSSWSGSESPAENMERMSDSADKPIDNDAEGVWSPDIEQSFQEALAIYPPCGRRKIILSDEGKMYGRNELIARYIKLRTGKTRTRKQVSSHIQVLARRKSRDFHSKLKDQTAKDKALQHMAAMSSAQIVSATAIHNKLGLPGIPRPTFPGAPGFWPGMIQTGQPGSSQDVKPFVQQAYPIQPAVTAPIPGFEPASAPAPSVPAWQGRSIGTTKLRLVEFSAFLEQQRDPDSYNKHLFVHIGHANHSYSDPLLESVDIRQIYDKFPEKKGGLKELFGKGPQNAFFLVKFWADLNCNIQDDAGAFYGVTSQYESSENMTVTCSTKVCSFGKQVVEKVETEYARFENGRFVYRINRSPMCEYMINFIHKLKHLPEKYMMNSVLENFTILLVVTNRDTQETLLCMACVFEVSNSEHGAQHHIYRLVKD
pIC50: −log10 of the molar value.
value_type: pIC50

C=CC(=O)NCc1cc(-c2ccc(OC(F)(F)F)cc2)c2ncoc2c1CO; 7.62

[a] C=CC(=O)NCc1cc(-c2ccc(OC(F)(F)F)cc2)c2cccnc2c1[C@@H](O)CO (single isomer, unassigned)
[b] C=CC(=O)NCc1cc(-c2ccc(OC(F)(F)F)cc2)c2c(c1[C@H](O)[C@H](C)O)CCO2 (single isomer, unassigned)
[c] C=C(F)C(=O)N1CC(c2nc(-c3ccc(OC(F)(F)F)cc3)c3ncn(C)c3n2)C1
Enquiry: Please give the order of these compounds when sorted by pIC50, largest value leading. // rank by listing labels in the order requested
Return: c, a, b

---

Biological target: TEAD2 (Homo sapiens, UniProt Q15562);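 further: TR-FRET competition assay with His-tagged TEAD protein and a biotinylated lipid pocket probe, where probe displacement by compound lowers the signal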
Sequence (Q15562 whole entry, species assumed): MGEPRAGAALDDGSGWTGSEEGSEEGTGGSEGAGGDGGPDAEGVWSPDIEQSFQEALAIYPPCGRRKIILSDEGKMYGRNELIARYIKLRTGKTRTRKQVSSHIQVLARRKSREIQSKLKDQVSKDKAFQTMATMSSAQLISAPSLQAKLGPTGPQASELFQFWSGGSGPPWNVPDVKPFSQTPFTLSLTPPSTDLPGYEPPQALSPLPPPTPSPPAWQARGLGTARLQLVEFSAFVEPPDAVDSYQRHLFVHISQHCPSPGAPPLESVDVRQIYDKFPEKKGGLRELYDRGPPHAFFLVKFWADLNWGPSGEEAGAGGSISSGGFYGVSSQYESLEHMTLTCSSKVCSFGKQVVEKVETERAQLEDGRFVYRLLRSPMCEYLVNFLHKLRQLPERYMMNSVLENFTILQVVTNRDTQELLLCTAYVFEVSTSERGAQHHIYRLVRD
Test: biochemical
value_type: IC50 (nM)

C=CC(=O)NCc1cc(-c2ccc(OC(F)(F)F)cc2)c2ncccc2c1[C@@H](O)CO (single isomer, unassigned); 14.5
C=CC(=O)NC1CN(c2nc(-c3ccc(OC(F)(F)F)cc3)c3ncn(C)c3n2)C1; 28

[1] C=CC(=O)NCc1cc(-c2ccc(OC(F)(F)F)cc2)c2ncoc2c1[C@@H](O)CO (single isomer, unassigned)
[2] C=CC(=O)N1CC[C@@H](c2nc(-c3ccc(OC(F)(F)F)cc3)c3ncn(C)c3n2)C1 (single isomer, unassigned)
Enquiry: For the two items 1 and 2 , which reports the higher IC50 value? # respond with the chosen item's label
Return: 2
(2: 66 nM, 1: 24 nM)

---

Molecular target: TEAD3 (Homo sapiens, UniProt Q99594)
Sequence (Q99594 whole entry, species assumed): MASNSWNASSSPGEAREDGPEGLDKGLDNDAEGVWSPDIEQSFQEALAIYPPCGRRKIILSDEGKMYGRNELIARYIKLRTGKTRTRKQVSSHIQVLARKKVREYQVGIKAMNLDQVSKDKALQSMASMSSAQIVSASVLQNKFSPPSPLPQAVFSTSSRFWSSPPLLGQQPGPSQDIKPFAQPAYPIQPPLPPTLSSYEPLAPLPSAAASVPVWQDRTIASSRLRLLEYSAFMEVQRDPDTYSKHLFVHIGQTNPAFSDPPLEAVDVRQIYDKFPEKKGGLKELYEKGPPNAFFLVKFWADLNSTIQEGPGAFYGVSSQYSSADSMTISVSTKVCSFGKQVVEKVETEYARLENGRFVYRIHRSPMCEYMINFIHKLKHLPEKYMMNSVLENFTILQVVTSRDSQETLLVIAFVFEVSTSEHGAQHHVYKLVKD
value_type: IC50 (nM)

Reference set (10 entries):
C=CC(=O)N(C)Cc1cc(-c2ccc(OC(F)(F)F)cc2)c2ncoc2c1[C@@H](O)CO (single isomer, unassigned); 47
C=CC(=O)NCc1cc(-c2ccc(C(F)(F)F)cc2)c2ncoc2c1[C@@H](O)CO (single isomer, unassigned); 970
C=CC(=O)NCc1cc(-c2ccc(OC(F)(F)F)cc2)c2ncn(C)c2c1C#N; 40.5
C=CC(=O)N(C)Cc1cc(-c2ccc(OC(F)(F)F)cc2)c2nccn2c1; 26
[2H]C([2H])=C([2H])C(=O)NCc1nc(-c2ccc(OC(F)(F)F)cc2)c2ncsc2n1; 216
C=CC(=O)NCc1cc(-c2ccc(OC(F)(F)F)cc2)c2ncn(C)c2c1[C@@H](C)O (single isomer, unassigned) [Compound 32]; 2500
C=CC(=O)NCc1cc(-c2ccc(OC(F)(F)F)cc2)c2ncccc2c1[C@H](O)CO (single isomer, unassigned); 175
C=CC(=O)NCc1cc(-c2ccc(OC(F)(F)F)cc2)c2nccnc2c1[C@H](C)O (single isomer, unassigned); 190
C=CC(=O)N(C)Cc1cc(-c2ccc(OC(F)(F)F)cc2)c2ncoc2c1[C@H](O)CO (single isomer, unassigned); 780
C=CC(=O)NCc1cc(-c2ccc(OC(F)(F)F)cc2)c2ncn(C)c2c1C#CCO; 93

[A] C=CC(=O)NCc1cc(-c2ccc(OC(F)(F)F)cc2)c2ncoc2c1[C@@H](O)CO (single isomer, unassigned)
[B] C=CC(=O)NCc1cc(-c2ccc(OC(F)(F)F)cc2)c2nccn2c1CC
[C] C=C(F)C(=O)N1CC(n2cc(-c3ccc(OC(F)(F)F)cc3)c3nccnc3c2=O)C1
Enquiry: Ordering: ascending IC50. Output spec: a listing of the labels in the requested order.
Return: C, B, A
